Test system: MDA-MB-231 cells
test.method.notes: MTT cell viability assay, MDA-MB-231
Assay type: cell-based, human
condition.details: Homo sapiens; MDA-MB-231, MTT, 72 h
pIC50: −log10 of the molar value.
measure.name: pIC50

| record.smiles | test.target | value.reported |
| --- | --- | --- |
| COc1cc(/C=C/C(=O)CC(=O)/C=C/c2ccc(O)c(OC)c2)ccc1O | MDA-MB-231 cells | 4.66 |
| O=C(/C=C(\O)c1ccccc1)c1ccccc1O | MDA-MB-231 cells | 4.43 |
